B1: Hairpin Ribozyme (parent)
chain: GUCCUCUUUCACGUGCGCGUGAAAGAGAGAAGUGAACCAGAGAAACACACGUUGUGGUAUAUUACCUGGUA

Variants of: B1
Assay Comment: self-cleavage, relative activity (ratio to wild type); higher = more cleavage; co-transcriptional
Attribute Measured: self-cleavage

State the recorded self-cleavage for this entry: A28U A49U
0.111

Given the entry G27A A64C , report its measured self-cleavage.
0.189

Entry U63G C66A : reported self-cleavage = ?
0.119

Please report the recorded self-cleavage for U33G U63G .
0.198

Which value of self-cleavage has been reported for U14G G69C in the records?
0.238

Which value of self-cleavage has been reported for G1A A61U in the records?
0.0641

Would you mind telling me what self-cleavage value was observed for C6U G51U ?
0.88

Which self-cleavage is listed for G17U G32U ?
0.121

Consider the variant shown here: A24C A47U What is its recorded self-cleavage?
0.0898

I would be grateful if you could share the reported self-cleavage for A47G C50G .
0.105

Param item = U7C C66U ; retrieve measured self-cleavage.
0.542

Which self-cleavage is reported for this variant? A26U C50A
0.209

Returns the measured self-cleavage for the input variant. Input: U8C A35C
0.876

Please look up its self-cleavage: G21A A35G
0.729

For the variant shown here, A36U A71G , give the reported self-cleavage.
0.829

Name the reported self-cleavage value associated with the variant G21C G68A
0.321

Which self-cleavage value belongs to G21C C66U ?
0.576

I would be grateful if you could share the reported self-cleavage for G13A C66A .
0.173

Field request: self-cleavage | item: C48U U52A
0.138

What value of measured self-cleavage is listed for A30C A45U ?
0.0541

Look up self-cleavage for this variant: A22G A35U
0.715

Item U9G U55A has what recorded self-cleavage?
0.179
